// data source = the supplement of paper PMC11451515

# Tested on: SEM cells
# Experiment Description: AUC of viability dose-response curve (% viability x log10 dose units); higher = less sensitive
# Measurement Context: RPMI 5 mM glucose + 10% FBS; 48 h
Quantity Name: AUC of viability dose-response curve

Compound	AUC of viability dose-response curve
COC1=CC=C2[C@H]3CC[C@]4(C)[C@H](CC[C@H]4[C@@H]3CCC2=C1)NCCCCCCN5C(=O)\C=C/C5=O	459
COc1cc[nH]c2ncc(C(=O)C(=O)N3CCN(C(=O)c4ccccc4)C[C@H]3C)c1-2	453
NC(=O)c1ccc(N(C(N)=O)c2c(F)cccc2F)nc1-c1ccc(F)cc1F	454
O=C(CCCN1CCN(c2ccc(F)cc2)CC1)NC1c2ccccc2CSc2ccccc21 (configuration not stated)	388
CCCCOCCOc1nc(-c2ccc(C(=O)O)c(F)c2)sc1C	460

Hi! Can you tell me AUC of viability dose-response curve for each of these compounds?
1. COc1ccc(C(=O)CC2(O)C(=O)Nc3c(Cl)ccc(Cl)c32)cc1 (configuration not stated)
2. CC[C@@H]([C@H](C)O)n1ncn(-c2ccc(N3CCN(c4ccc(OCC5CO[C@@](Cn6cncn6)(c6ccc(F)cc6F)C5)cc4)CC3)cc2)c1=O (some centres not stated)
3. COc1ccc(C(=O)c2c(C)n(CCN3CCOCC3)c3cc(I)ccc23)cc1
4. O=C(O)c1cccnc1Nc1cccc(C(F)(F)F)c1

OUTPUT:
1. 330
2. 452
3. 461
4. 420

Hi! Can you tell me AUC of viability dose-response curve for each of these compounds?
1. COc1cc2c(cc1OC)CN(CCc1ccc(NC(=O)c3cc(OC)c(OC)cc3NC(=O)c3cnc4ccccc4c3)cc1)CC2
2. CN1CCCN(CC1)C2=CC=C3C(=O)\C(=C/4SC5=C(C=CC=C5)N4C3=N2)C(=O)NCC6=CN=C(C)C=N6
3. COC1=C(OCCCN2CCOCC2)C=CC\3=C1/N=C(/NC(=O)C4=CN=C(N)N=C4)N5CC/N=C35
4. C[C@@H]1CCO[C@H]2CN\3/C=C(/C(=O)NCC4=C(F)C=C(F)C=C4)C(=O)\C(=C3C(=O)N12)O
5. CC(C)CN(C[C@@H](O)[C@H](Cc1ccccc1)NC(=O)O[C@H]1CCOC1)[S+](=O)([O-])c1ccc(N)cc1
6. C[C@]12CC[C@H]3[C@@H](CCC4=CC(=O)CC[C@@H]43)[C@@H]1CC[C@@H]2OC(=O)CCc1ccccc1
7. CCCCCNC(=O)N1CCC(CN(Cc2ccc(Cl)cc2)Cc2ccc([N+](=O)[O-])s2)C1 (configuration not stated)

OUTPUT:
418
335
360
454
369
416
447

INPUT: Return reported AUC of viability dose-response curve. Input compound: Cc1cnc(Nc2ccc(F)cc2Cl)nc1-c1c[nH]c(C(=O)N[C@H](CO)c2cccc(Cl)c2)c1
OUTPUT: 452
